The entries below come with measured IC50 values attached.
- tested_on: cyclin D1-cdk4 (Homo sapiens)
- measurement_protocol: Assay of Cyclin D1-cdk4 kinase activity with the ING peptide as substrate
- Format: biochemical
- experimental_conditions: 200 uM ING peptide, 300 uM ATP, 60 minutes, room temperature
Form entry: value (nM) — number only.

{"compound": "CC1(C)Cc2cccc3c4c5c(c6c7cccc8c7n(c6c4n(c23)C1)CCNC8)C(=O)NC5=O", "unit_tag": "nM", "test_result": 51}

Please look up its IC50: O=C1NC(=O)c2c1c1c3cccc4c3n(c1c1c2c2cccc3c2n1CCCNC3)CCC4 [drawing 39]
605

Please look up its IC50: O=C1NC(=O)c2c1c1c3cccc4c3n(c1c1c2c2cccc3c2n1CCNC3)CCC4 [drawing 40]
35.4

Please look up its IC50: O=C1NC(=O)C(c2cn3c4c(cccc24)NCCC3)=C1c1cn2c3c(cccc13)CCC2 [drawing 43]
143

Please look up its IC50: CC1(C)CCn2cc(C3=C(c4cn5c6c(cccc46)CNCC5)C(=O)NC3=O)c3cccc1c32
537

Please look up its IC50: CC1(C)CCn2c3c1cc(F)cc3c1c3c(c4c5cccc6c5n(c4c12)CCNC6)C(=O)NC3=O
413

* * *

The entries below come with measured pIC50 values attached.
- tested_on: cyclin D1-cdk4 (Homo sapiens, UniProt P11802)
- Sequence (P11802 whole entry): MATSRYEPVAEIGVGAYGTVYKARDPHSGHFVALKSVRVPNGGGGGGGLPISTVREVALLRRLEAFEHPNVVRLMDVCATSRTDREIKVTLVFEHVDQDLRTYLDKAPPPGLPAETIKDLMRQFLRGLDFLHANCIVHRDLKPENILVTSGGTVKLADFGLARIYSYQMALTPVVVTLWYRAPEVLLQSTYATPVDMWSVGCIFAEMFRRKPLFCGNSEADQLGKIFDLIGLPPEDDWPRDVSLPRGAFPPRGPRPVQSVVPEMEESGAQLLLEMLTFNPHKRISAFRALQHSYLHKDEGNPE
- Sequence (P24385 whole entry partner): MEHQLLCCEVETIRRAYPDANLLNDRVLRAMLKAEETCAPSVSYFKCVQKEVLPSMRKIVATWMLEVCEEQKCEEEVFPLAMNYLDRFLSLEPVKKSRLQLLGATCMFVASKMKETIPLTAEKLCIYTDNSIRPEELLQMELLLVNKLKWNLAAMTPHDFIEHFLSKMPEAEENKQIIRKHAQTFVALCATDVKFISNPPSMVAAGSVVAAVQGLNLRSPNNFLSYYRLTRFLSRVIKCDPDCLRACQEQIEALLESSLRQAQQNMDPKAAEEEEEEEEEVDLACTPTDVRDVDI
- measurement_protocol: Assay of Cyclin D1-cdk4 kinase activity with the ING peptide as substrate
- Assay type: biochemical
- experimental_conditions: 200 uM ING peptide, 300 uM ATP, 60 minutes, room temperature
Interpret pIC50 as the negative base-10 log of the concentration measured in mol/L.

{"sample_smiles": "CC1(C)CCn2cc(C3=C(c4cn5c6c(cccc46)CNCC5)C(=O)NC3=O)c3cc(F)cc1c32", "tested_on": "cyclin D1-cdk4 (Homo sapiens, UniProt P11802)", "test_result": 6.73}
{"sample_smiles": "CC1(C)CCc2cccc3c(C4=C(c5cn6c7c(cccc57)CNCC6)C(=O)NC4=O)cn1c23", "tested_on": "cyclin D1-cdk4 (Homo sapiens, UniProt P11802)", "test_result": 6.46}

Attention now shifts to the item below.
Please look up its pIC50: CC1(C)Cc2cccc3c(C4=C(c5cn6c7c(cccc57)CNCC6)C(=O)NC4=O)cn(c23)C1
6.21

Origin of measurements: patent US6743785B2
